# ASSAY SYSTEM: T1, Ax1 protein, extracellular domain (human, UniProt P30530 26-451)
# T1 construct: extracellular domain; also called Axl; Ark
# T1 sequence (looked up): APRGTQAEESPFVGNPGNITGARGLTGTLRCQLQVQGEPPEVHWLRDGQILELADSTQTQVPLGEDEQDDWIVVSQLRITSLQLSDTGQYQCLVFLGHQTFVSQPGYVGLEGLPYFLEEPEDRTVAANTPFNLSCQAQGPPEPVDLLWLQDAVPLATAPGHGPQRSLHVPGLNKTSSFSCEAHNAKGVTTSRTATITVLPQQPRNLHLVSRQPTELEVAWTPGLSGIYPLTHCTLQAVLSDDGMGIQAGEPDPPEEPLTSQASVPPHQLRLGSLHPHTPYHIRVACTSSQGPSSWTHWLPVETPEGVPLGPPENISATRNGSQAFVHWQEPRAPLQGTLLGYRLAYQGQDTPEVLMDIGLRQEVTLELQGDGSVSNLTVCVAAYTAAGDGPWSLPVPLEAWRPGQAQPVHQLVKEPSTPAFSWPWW
# ASSAY: ELISA, mutant diluted 1:3
# Text: The DNA encoding the wild-type antibody was evolved to generate a mutant antibody library using Comprehensive Positional Evolution (CPE), which each position in the template antibody is randomized one at a time. Each mutant antibody in the library has only one single point mutation. The mutant antibodies in the library were generated by simultaneously screening for selective binding affinity to Ax1 at pH 6.0 over pH 7.4 by ELISA. Two mutant antibody dilutions were used: 1:3 and 1:9 dilutions.
As shown below, each of these binders has a reported Affinity ELISA CPE mutant ratio (1:3, pH 6.0/7.4) value.
Format: numeric value only, no unit, no commentary.

Sample records with Affinity ELISA CPE mutant ratio (1:3, pH 6.0/7.4):
BINDER | READOUT VALUE
HC-S103Q (antibody, V domains shown, CPE single point mutant) VH: EVQLVQSGAEVKKPGATVKISCKVSGYSFTGHTMNWIRQPPGKGLEWIGLIKPSNGGTSYNQKFKGRVTISADKSISTAYLQWSSLKASDTAMYYCAHGHYEQYFAMDYWGQGTLVTVSS VL: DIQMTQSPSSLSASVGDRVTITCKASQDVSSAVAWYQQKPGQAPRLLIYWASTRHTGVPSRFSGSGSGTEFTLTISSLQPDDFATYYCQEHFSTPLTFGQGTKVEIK | 0.912
LC-A034D (antibody, V domains shown, CPE single point mutant) VH: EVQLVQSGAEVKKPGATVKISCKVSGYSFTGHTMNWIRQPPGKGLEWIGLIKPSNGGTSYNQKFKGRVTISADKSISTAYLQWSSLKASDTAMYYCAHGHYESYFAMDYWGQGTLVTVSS VL: DIQMTQSPSSLSASVGDRVTITCKASQDVSSAVDWYQQKPGQAPRLLIYWASTRHTGVPSRFSGSGSGTEFTLTISSLQPDDFATYYCQEHFSTPLTFGQGTKVEIK | 3

Input: Please look up its Affinity ELISA CPE mutant ratio (1:3, pH 6.0/7.4): LC-F092G (antibody, V domains shown, CPE single point mutant) VH: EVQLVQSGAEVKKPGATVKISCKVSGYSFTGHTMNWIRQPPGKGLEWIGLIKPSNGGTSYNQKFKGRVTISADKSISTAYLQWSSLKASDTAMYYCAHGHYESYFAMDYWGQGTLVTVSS VL: DIQMTQSPSSLSASVGDRVTITCKASQDVSSAVAWYQQKPGQAPRLLIYWASTRHTGVPSRFSGSGSGTEFTLTISSLQPDDFATYYCQEHGSTPLTFGQGTKVEIK
Output: 3.69
